Target: T1, human NPR1 extracellular domain expressed with a C-terminal myc-myc-hexahistidine (hNPR1-MMH) (human, UniProt P16066 33-473)
T1 construct: also called hNPR.mmh; monomeric human NPR1
T1 sequence (P16066 other isoform, or with tags, fused parts or gaps): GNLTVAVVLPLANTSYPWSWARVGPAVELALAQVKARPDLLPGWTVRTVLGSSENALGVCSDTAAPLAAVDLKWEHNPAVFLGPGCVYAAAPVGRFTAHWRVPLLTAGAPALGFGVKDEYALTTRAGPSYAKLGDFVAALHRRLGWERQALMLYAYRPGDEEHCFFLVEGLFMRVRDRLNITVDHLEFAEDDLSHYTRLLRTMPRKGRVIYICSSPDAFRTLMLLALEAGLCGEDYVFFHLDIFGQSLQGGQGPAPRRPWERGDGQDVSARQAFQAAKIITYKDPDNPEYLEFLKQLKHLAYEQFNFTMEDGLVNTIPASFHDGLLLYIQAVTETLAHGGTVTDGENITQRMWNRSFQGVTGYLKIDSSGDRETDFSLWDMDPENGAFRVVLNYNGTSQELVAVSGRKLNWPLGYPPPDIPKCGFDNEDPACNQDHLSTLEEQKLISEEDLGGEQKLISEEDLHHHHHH
Test: SPR, mAb captured, 37 C
For each of the binders below, state its koff.
Give the value in s⁻¹ but do not write s⁻¹ after it.

Measured koff, mAb25497 (antibody, V domains shown) VH: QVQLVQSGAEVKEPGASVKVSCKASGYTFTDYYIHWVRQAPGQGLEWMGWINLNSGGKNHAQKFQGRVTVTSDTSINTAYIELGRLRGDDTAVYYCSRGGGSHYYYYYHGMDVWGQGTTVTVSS VL: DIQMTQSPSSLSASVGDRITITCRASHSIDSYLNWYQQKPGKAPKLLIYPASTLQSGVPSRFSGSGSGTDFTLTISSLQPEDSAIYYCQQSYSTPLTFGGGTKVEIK : 0.00258

// sample mAb22035 (antibody, V domains shown) VH: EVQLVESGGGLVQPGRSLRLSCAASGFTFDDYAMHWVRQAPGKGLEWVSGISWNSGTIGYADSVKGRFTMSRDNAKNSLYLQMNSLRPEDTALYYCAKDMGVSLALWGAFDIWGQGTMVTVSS VL: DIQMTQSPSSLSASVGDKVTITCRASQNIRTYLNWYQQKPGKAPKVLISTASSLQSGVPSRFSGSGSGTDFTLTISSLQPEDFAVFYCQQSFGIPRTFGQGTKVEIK , its koff was 0.000312

Entry under test: mAb25508 (antibody, V domains shown) VH: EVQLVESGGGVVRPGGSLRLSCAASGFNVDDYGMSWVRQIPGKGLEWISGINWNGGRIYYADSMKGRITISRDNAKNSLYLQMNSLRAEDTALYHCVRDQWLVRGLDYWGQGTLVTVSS VL: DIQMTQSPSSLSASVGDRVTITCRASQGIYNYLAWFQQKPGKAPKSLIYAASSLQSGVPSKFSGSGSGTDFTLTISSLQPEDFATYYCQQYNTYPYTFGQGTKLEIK . Its koff was 0.000222

Note to self: koff recorded for mAb25491 (antibody, V domains shown) VH: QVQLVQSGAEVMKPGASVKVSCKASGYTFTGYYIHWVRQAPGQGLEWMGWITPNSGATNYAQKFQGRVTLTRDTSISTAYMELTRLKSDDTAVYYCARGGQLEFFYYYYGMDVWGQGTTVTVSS VL: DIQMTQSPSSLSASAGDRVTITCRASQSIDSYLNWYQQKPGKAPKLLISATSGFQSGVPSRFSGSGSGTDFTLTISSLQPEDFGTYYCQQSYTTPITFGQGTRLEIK was 0.00453

Summary for this binder, mAb25479 (antibody, V domains shown) VH: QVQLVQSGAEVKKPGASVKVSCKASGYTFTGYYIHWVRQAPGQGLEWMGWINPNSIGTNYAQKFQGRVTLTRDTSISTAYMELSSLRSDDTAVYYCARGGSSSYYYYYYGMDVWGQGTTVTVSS VL: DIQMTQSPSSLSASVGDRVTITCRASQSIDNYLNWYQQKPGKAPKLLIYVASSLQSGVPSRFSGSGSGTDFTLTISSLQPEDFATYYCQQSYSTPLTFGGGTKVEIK : koff is 0.0157

Query mAb22033 (antibody, V domains shown) VH: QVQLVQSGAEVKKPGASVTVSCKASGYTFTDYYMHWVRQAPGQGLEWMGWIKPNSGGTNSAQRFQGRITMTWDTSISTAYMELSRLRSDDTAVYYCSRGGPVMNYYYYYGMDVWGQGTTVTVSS VL: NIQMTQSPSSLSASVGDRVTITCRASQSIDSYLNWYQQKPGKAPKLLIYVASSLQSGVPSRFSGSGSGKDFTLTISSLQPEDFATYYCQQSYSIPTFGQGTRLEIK yields koff of 0.000819
